assay: qHTS Assay for Lipid Storage Modulators in Drosophila S3 Cells; conditions: BODIPY lipid droplet fluorescence, 18-24 h, cells fed with added oleic acid; series mostly up to 46.1 µM; note: potency is the fitted concentration of half-maximal effect
Among all 320,000 compounds or so, about 2,100 (0.66%) were called active. Inconclusive results (about 53%) are left out. The entries come from a sample that favours actives as a whole.
MEASURED PARAMETER: Potency

Example molecules with recorded Potency:
Could you tell me which Potency is on file for `CC(=O)Nc1ccc(NC(=O)CSc2ccc([N+](=O)[O-])cn2)cc1` ?
inactive

Could you tell me which Potency is on file for CCn1c(SCC(=O)N(C)C2CCS(=O)(=O)C2)nnc1-c1ccccc1 (configuration not stated) ?
inactive

Could you tell me which Potency is on file for `c1ccc(CNc2nc(NCc3ccccc3)c3ccccc3n2)cc1` ?
16.4 µM (active)

Could you tell me which Potency is on file for COC(=O)CNC(=O)C1CCC(CNS(=O)(=O)c2cccc3nsnc23)CC1 (configuration not stated) ?
inactive

Could you tell me which Potency is on file for `COC(=O)C1CCN(Cc2cc(=O)oc3cc(C)c(Cl)cc23)CC1` ?
inactive

Could you tell me which Potency is on file for `Cn1c(Cn2c(=O)sc3ccccc32)nnc1SCC(=O)N1CCOCC1` ?
inactive

Could you tell me which Potency is on file for Cc1ccc2c(CN3CC(C)CC(C)C3)cc(=O)oc2c1 (configuration not stated) ?
1.16 µM (active)

Could you tell me which Potency is on file for `O=C(NN1CCOCC1)c1cc(-c2ccc(Br)s2)nc2ccccc12` ?
inactive

More entries:
Could you tell me which Potency is on file for `Cc1c(C)n(Cc2ccc(F)cc2)c2ccc(C(=O)NCCCN3CCOCC3)cc12` ?
29.1 µM (active)

Could you tell me which Potency is on file for `O=C(CSC1=NCCS1)N1CCN(c2ccc(Cl)cc2)CC1` ?
inactive

Could you tell me which Potency is on file for `Cc1ccc2c(CN3CCOCC3)cc(=O)oc2c1` ?
inactive

Could you tell me which Potency is on file for `CCCn1c(=N)n(CC(=O)OCC)c2ccccc21` ?
inactive

Could you tell me which Potency is on file for `CCN(CC)c1ccc(/C=N/Nc2ccccc2)c(O)c1` ?
inactive

Could you tell me which Potency is on file for Cc1ccccc1N1C(=O)C(Oc2ccc(Cl)cc2)C1CNCCCOC(C)C (configuration not stated) ?
23.1 µM (active)

Could you tell me which Potency is on file for CCCNC(=O)C1CCC(CNS(=O)(=O)c2cccc3nsnc23)CC1 (configuration not stated) ?
inactive

Could you tell me which Potency is on file for `O=C(NCCCN1CCOCC1)C(=O)NCCc1ccccc1` ?
inactive

Could you tell me which Potency is on file for `O=C(Nc1ccccc1C(=O)NCCCN1CCOCC1)c1ccccc1` ?
inactive

Could you tell me which Potency is on file for `Cc1ccc2c(CN3CCN(Cc4ccccc4)CC3)cc(=O)oc2c1` ?
inactive

Could you tell me which Potency is on file for `Cc1oc(-c2ccoc2)nc1CN(Cc1ccccc1)CC1CC1` ?
inactive

Could you tell me which Potency is on file for CC1CCCCN1C(=O)c1ccc(Br)o1 (configuration not stated) ?
inactive

Could you tell me which Potency is on file for `Cc1cccc(N2C(=O)c3ccc(C(=O)Nc4c[nH]c(=O)[nH]c4=O)cc3C2=O)c1` ?
inactive

Could you tell me which Potency is on file for `O=C(NCCCN1CCOCC1)C1(c2ccccc2)CCCC1` ?
inactive

Could you tell me which Potency is on file for `O=C(Cn1cc([N+](=O)[O-])cn1)Nc1nccs1` ?
inactive

Could you tell me which Potency is on file for `O=C(CSC1=NCCS1)N1CCCCCC1` ?
4.61 µM (active)

Could you tell me which Potency is on file for `COc1ccc(CNC(=O)C/C(C)=N/NC(=O)C23CC4CC(CC(C4)C2)C3)cc1` ?
inactive

* * *

assay: qHTS Assay for Lipid Storage Modulators in Drosophila S3 Cells; details: BODIPY lipid droplet fluorescence, 18-24 h, cells fed with added oleic acid; series mostly up to 46.1 µM; note: potency is the fitted concentration of half-maximal effect
The campaign covered roughly 320,000 compounds. About 2,100 (0.66%) were called active. Not shown: some 53% with an inconclusive outcome. For the sample, actives were picked, then their nearest neighbours and some compounds at random.
MEASURED PARAMETER: Potency

Could you tell me which Potency is on file for `Cc1cc[n+]2c3c(cccc13)CCC2` ?
inactive

Could you tell me which Potency is on file for CC12CN3CCN(CC(C3)C1(O)CN1CCOCC1)C2 (configuration not stated) ?
4.61 µM (active)

Could you tell me which Potency is on file for CCC(C)[C@@H](N)C(=O)N/N=C/c1cccc2nccnc12 (some centres not stated) ?
inactive

Could you tell me which Potency is on file for CCN(CC)c1ccc(C=C2C(=O)OC(c3ccccc3)OC2=O)cc1 (configuration not stated) ?
inactive

Could you tell me which Potency is on file for CCOc1ccc(NC(=O)CN2C(=O)CSC(C)C2=O)cc1 (configuration not stated) ?
inactive

Could you tell me which Potency is on file for Cc1ccc(NC(=O)CC2Oc3ccc(C)cc3NC2=O)c(C)c1 (configuration not stated) ?
inactive

Could you tell me which Potency is on file for `CSc1cc(C)n(-c2ccc(Cl)cc2)c(=S)c1C(C)=O` ?
inactive

Could you tell me which Potency is on file for `Cc1nn(CC(=O)NC(C)C)c(C)c1[N+](=O)[O-]` ?
inactive

More entries:
Could you tell me which Potency is on file for `CC1=NOC(=O)/C1=C/c1ccc(N(C)C)cc1` ?
inactive

* * *

experiment: qHTS Assay for Lipid Storage Modulators in Drosophila S3 Cells; conditions: BODIPY lipid droplet fluorescence, 18-24 h, cells fed with added oleic acid; measured here: cell count max response;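 for cell number change: cells counted by Cell Tracker Red CMTPX staining in the red channel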
Among all 320,000 compounds or so, about 2,100 (0.66%) were called active. Inconclusive results (about 53%) are left out. Many of the other results were omitted from the sample, so actives are more common in it than they were.
// values below are reported cell number change
Just the number in %, nothing appended.

Example compounds with recorded cell number change:
Could you tell me which cell number change is on file for `Nc1cc(N)nc(SCCN2CCCCC2)n1` ?
3.17

Could you tell me which cell number change is on file for `Cc1cc(C)c(C#N)c(SCCN2CCCCC2)n1` ?
-24.3

Could you tell me which cell number change is on file for `CCOc1ccc(NC(=O)Nc2ccc(NC(C)=O)cc2)cc1` ?
11

Could you tell me which cell number change is on file for `CCOc1ccc(NC(=O)Nc2cc(OCC(F)(F)F)cc(OCC(F)(F)F)c2)cc1` ?
-25.7

Could you tell me which cell number change is on file for `CN(C)c1cc(Nc2ccc(O)cc2)c([N+](=O)[O-])c2nonc12` ?
4.46

Proceeding to the next compound to report its cell number change.
Could you tell me which cell number change is on file for `CCOc1ccc(NC(=O)Nc2cccc(C(=O)O)c2)cc1` ?
14.2

* * *

assay: qHTS Assay for Lipid Storage Modulators in Drosophila S3 Cells; conditions: BODIPY lipid droplet fluorescence, 18-24 h, cells fed with added oleic acid; measured here: cell count max response;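 for cell number change: cells counted by Cell Tracker Red CMTPX staining in the red channel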
Hit rate of the full screen: of about 320,000 compounds, about 2,100 (0.66%) were called active. Roughly 53% stayed inconclusive and do not appear here. The entries come from a sample that favours actives as a whole.
// values below are reported cell number change
Just the number in %, nothing appended.

Could you tell me which cell number change is on file for `COc1ccc(OC)c(CNc2ncc(-c3ccc(F)cc3)n2C)c1` ?
-16.1

Could you tell me which cell number change is on file for CCCCCCCn1c(=N)n(CC(O)c2ccco2)c2ccccc21 (configuration not stated) ?
-4.47

Could you tell me which cell number change is on file for CCN(Cc1ccccc1)C(c1ccncc1)c1nnnn1C(C)(C)C (configuration not stated) ?
1.49

Could you tell me which cell number change is on file for `Cc1cc(-n2c(C)cc(C(=O)COc3ccc4ccc(=O)oc4c3)c2C)no1` ?
-3.86

Could you tell me which cell number change is on file for CCOc1ccc(C(C)=O)cc1CN1C(=O)NC2(CCCCC2C)C1=O (configuration not stated) ?
-2.29

Could you tell me which cell number change is on file for `O=C(CN1CCN(S(=O)(=O)c2ccccc2)CC1)Nc1ccc(Cl)c([N+](=O)[O-])c1` ?
22

More entries:
Could you tell me which cell number change is on file for `CCC(=O)Oc1ccc2oc(=O)cc(C)c2c1` ?
-1.41

Could you tell me which cell number change is on file for `CC(=O)c1ccc(S(=O)(=O)N2CCN(CC(=O)Nc3ccc(Cl)c([N+](=O)[O-])c3)CC2)cc1` ?
-15.2

Could you tell me which cell number change is on file for `O=C(CN1CCN(S(=O)(=O)c2ccccc2)CC1)Nc1ccccc1C(=O)c1ccccc1` ?
4.18

* * *

experiment: qHTS Assay for Lipid Storage Modulators in Drosophila S3 Cells; conditions: BODIPY lipid droplet fluorescence, 18-24 h, cells fed with added oleic acid; series mostly up to 46.1 µM
Among all 320,000 compounds or so, about 2,100 (0.66%) were called active. Roughly 53% stayed inconclusive and do not appear here. The call rests on the fitted dose curve; in most records, active means well fitted inhibition curve with a large enough effect in the signal ratio, with a control signal flat (not every such curve was filed as active); inconclusive means small, poorly fitted or top-dose-only effect, or effect the other way, or a change in a side signal; inactive means flat fitted curve, though single readings scatter; the % refers to the signal ratio. The list comes from a sample in which actives are over-represented; it also holds close analogues and randomly drawn compounds.
Please reply with one of these outcomes: T for active, F for inactive

Observe how each entry below is paired with its result.
// outcome(item) with item = `COc1cc(NC(=O)c2ccccc2Cl)ccc1NC(=O)c1cccs1`
F

// outcome(item) with item = `COc1cc(NC(=O)c2cccnc2)c(OC)cc1NC(=O)c1ccc(Br)cc1`
F

More entries:
// outcome(item) with item = `Cc1ccc(-n2c(SCc3cn4ccsc4n3)nc3ccccc3c2=O)cc1`
F

// outcome(item) with item = `COc1ccccc1NC(=O)c1ccc2nsnc2c1`
T

// outcome(item) with item = CC1CN(C(=O)c2ccccc2OCc2ccc(Cl)cc2Cl)CC(C)O1 (centres undefined)
T

// outcome(item) with item = CCOC(=O)C(NCCc1ccccc1F)(NC(C)=O)C(F)(F)F (centres undefined)
F
